biological target: EGFR L858R (Homo sapiens, UniProt P00533, L858R); construct: purchased Carna Bio; test: Inhibition of EGFR L858R biochemical enzymatic activity (HTRF); conditions: 1 mM ATP, 1 h, room temperature, read-out: IC50 (nM) @L858R
Sequence (P00533 25-1210 L858R): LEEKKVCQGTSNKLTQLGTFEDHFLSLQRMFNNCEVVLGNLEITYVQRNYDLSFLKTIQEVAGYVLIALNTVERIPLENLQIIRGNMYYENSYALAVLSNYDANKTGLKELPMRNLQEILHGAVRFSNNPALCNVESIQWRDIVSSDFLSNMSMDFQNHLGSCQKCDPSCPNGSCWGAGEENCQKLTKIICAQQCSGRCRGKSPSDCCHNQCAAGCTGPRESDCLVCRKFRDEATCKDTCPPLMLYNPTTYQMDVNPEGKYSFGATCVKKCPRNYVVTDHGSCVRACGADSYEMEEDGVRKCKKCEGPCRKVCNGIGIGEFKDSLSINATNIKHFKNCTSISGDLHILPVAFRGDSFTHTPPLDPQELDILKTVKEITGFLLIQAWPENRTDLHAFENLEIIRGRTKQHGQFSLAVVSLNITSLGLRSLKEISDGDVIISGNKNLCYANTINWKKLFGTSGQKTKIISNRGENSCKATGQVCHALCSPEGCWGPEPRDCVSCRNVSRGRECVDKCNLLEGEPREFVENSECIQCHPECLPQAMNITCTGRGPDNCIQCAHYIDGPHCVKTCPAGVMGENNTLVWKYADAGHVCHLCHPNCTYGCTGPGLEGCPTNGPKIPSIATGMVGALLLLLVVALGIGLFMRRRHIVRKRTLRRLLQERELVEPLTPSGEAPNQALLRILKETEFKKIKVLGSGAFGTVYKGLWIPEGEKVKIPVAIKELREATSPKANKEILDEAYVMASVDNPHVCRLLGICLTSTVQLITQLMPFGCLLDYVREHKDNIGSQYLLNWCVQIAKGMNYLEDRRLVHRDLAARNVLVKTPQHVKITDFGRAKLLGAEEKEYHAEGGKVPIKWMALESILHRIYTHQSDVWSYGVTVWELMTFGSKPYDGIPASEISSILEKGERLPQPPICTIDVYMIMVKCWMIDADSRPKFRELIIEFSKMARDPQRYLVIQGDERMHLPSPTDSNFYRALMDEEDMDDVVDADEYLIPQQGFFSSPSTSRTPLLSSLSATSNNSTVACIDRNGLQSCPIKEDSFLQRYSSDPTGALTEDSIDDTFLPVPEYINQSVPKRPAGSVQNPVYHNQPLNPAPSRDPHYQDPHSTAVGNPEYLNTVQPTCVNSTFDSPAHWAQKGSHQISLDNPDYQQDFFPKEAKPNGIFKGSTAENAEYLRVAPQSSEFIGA
quantity.measured: log10 of IC50 (log10 of the value in nM)
Quick note: numbers are log10 of IC50, with nM as the unit.

Completed entries (count: 2):
- molecule: "C[C@@H]1CCCOc2c(cnn2CC(F)(F)F)-c2cc(cn(C)c2=O)C(=O)Nc2nc3ccc(N4CCN(C)CC4)cc3n2C1"
  observed.result: 2.48
- molecule: "Cn1ncc2c1OCCN1CC3CCC(C3)(C1)n1c(nc3cc(F)c(N4CCOCC4)cc31)NC(=O)c1cc-2c(=O)n(C)c1 (single isomer, unassigned) [Example A118B]"
  observed.result: 2.04

Batch of 3 molecules: report log10 of IC50 for each.
1. CN1CCN(C2CCN(c3ccc4nc5n(c4c3)C34CCC(CN(CCOc6c(cnn6C)-c6cc(cn(C)c6=O)C(=O)N5)C3)C4)C2)CC1 (single isomer, unassigned) [Example A80B1]
2. C[C@@H]1CCCOc2c(cnn2C)-c2cc(cn(C)c2=O)C(=O)Nc2nc3ccc(N4CCN(CC(F)(F)F)CC4)cc3n2C1
3. CN1CCOC2(C1)CN(c1ccc3nc4n(c3c1)C13CCC(CN(CCOc5c(cnn5C)-c5cc(cn(C)c5=O)C(=O)N4)C1)C3)C2 (single isomer, unassigned) [Example A86A]

1. 0.86
2. 2.66
3. 3.33

###

Give measured IC50 for each item. Keep answers brief.
molecular target: EGFR Exon19Del (Homo sapiens, UniProt P00533, DEL746-750); construct: purchased Carna Bio; assay: Inhibition of EGFR Exon19Del biochemical enzymatic activity (HTRF); details: EGFR Del19, 1 mM ATP, 1 h, room temperature, read-out: IC50 @Del19
Sequence (P00533 with tags, fused parts or gaps DEL746-750 limits assumed): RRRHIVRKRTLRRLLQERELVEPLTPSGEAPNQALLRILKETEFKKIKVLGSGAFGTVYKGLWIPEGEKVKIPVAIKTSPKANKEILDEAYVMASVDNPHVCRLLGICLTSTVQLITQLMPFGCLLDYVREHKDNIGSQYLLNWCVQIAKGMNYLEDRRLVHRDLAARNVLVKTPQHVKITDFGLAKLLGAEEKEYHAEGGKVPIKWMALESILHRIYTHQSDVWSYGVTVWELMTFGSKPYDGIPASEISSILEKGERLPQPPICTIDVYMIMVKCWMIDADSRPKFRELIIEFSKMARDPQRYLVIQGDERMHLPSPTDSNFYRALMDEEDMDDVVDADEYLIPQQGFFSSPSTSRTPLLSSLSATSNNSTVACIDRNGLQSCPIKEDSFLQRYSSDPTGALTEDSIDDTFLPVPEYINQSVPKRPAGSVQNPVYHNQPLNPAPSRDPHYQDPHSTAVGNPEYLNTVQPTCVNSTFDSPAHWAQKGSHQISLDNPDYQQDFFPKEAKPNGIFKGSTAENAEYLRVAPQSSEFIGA
Numbers only, in nM.

Completed entries (count: 5):
- molecule: "C[C@@H]1CCCOc2c(cnn2C)-c2cc(cn(C)c2=O)C(=O)Nc2nc3ccc(N4CC(N(C)C)C4)cc3n2C1"
  quantity.measured: "IC50"
  observed.result: 3.4
- molecule: "C[C@@H]1CCCOc2c(cnn2C)-c2cc(cn(C)c2=O)C(=O)Nc2nc3ccc(N4CCN(C(=O)OC(C)(C)C)CC4)cc3n2C1"
  quantity.measured: "IC50"
  observed.result: 118
- molecule: "Cn1ncc2c1OCCN1CCCC(C)(C1)n1c(nc3ccc(N4CCOCC4)cc31)NC(=O)c1cc-2c(=O)n(C)c1 (stereo not shown)"
  quantity.measured: "IC50"
  observed.result: 189
- molecule: "Cn1ncc2c1OCCN1CC3CCC(CC3)(C1)n1c(nc3cc(F)c(N4CCOCC4)cc31)NC(=O)c1cc-2c(=O)n(C)c1"
  quantity.measured: "IC50"
  observed.result: 41
- molecule: "C[C@@H]1CCCOc2c(cnn2C)-c2cc(cn(C)c2=O)C(=O)Nc2nc3ccc(N4CCC5(CCN(C)C5)CC4)cc3n2C1"
  quantity.measured: "IC50"
  observed.result: 1.1

Batch of 2 molecules: report IC50 for each.
1. Cc1cc2cc(n1)-c1cnn(C)c1OCCN1CC3CCC(CC3)(C1)n1c(nc3ccc(N4CCN(C)CC4)cc31)NC2=O
2. C[C@@H]1CCCOc2c(cnn2C)-c2cc(cn(C)c2=O)C(=O)Nc2nc3ccc(N4CCN(C5CC5)CC4)cc3n2C1

[7, 3.1]
